Recorded log10 of Ki by entry
Target: sigma-2 binding site (Cavia porcellus, UniProt H0V073)
Construct: Guinea pig whole membrane preparations (P2 microsomal fraction); from tissue; host or cells: guinea pig membranes (P2 microsomal fraction), as described by Weber et al; brain inferred from the sister test b489
Sequence (H0V073 1-176): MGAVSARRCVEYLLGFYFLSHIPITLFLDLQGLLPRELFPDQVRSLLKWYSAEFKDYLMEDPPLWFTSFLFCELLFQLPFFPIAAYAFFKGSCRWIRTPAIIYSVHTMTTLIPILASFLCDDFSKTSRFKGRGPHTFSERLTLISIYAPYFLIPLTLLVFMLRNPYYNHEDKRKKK
Test: biochemical
Set-up: species or system guinea pig
Conditions: SIGMA-2 KI vs. 3H-DTG + PENTAZOCINE MEAN
Field: value | Transform: log10 | Quantity: Ki | Unit: µM

compound: C=CCN1CC[C@]2(C)c3cc(O)ccc3C[C@H]1[C@H]2C [(+)SKF 10047, reference compound]
test_system: sigma-2 binding site (Cavia porcellus, UniProt H0V073)
observed_result: 1.21

Exercise: Give the measured log10 of Ki of CN(C)CCCN1c2ccccc2Sc2ccc(Cl)cc21 [Chlorpromazine, reference compound] .
Key: -0.15

Exercise: Give its log10 of Ki value. Item: CC(C)(C)[C@@]1(O)CCN2C[C@@H]3c4ccccc4CCc4cccc(c43)[C@H]2C1 [(-)Butaclamol, reference compound]
Key: 0.53

Exercise: # log10 of Ki lookup, item C=CCN1CC[C@@]2(C)c3cc(O)ccc3C[C@@H]1[C@@H]2C [(-)SKF 10047, reference compound]
Key: 0.96

Exercise: So what does the record say about log10 of Ki for C[C@@H]1CN(CCCn2c3ccccc3c3ccccc32)C[C@H](C)N1 [Rimoazole, reference compound] ?
Key: -0.58

Exercise: Quick check: log10 of Ki of CCCN1CCC[C@H](c2cccc(O)c2)C1 [(+)3-PPP, reference compound] ?
Key: -0.31
